- Tested on: NCI/ADR-RES complex spheroid viability
- assay.remarks: Anticancer human tumor NCI/ADR-RES cell line growth inhibition;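 also: spheroids exposed to compounds for 7 days; 100% = DMSO vehicle treated spheroids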
- run.conditions: second compound 0.1 µM; first compound 0.03 µM; hits give low values
measured.property: viability, T/C (%)
Please reply with the bare figure in % and do not write the unit itself.

Worked cases, answers included:
compound	measured.property	numeric.value
Nc1ncn(C2CC(O)C(CO)S2)c(=O)n1 (configuration not stated) + NC1CCC(NC2CC2c2ccccc2)CC1	viability, T/C	41.5
NS(=O)(=O)OCC1CC(n2ccc3c(NC4CCc5ccccc54)ncnc32)CC1O (configuration not stated) + NC1CCC(NC2CC2c2ccccc2)CC1	viability, T/C	98.9
NS(=O)(=O)OCC1CC(n2ccc3c(NC4CCc5ccccc54)ncnc32)CC1O (configuration not stated) + NC1CC1c1ccc(-c2cccc(O)c2)cc1	viability, T/C	90.5

Reading of viability, T/C for Nc1ccn(C2OC(CO)C(O)C2(F)F)c(=O)n1 (configuration not stated) + NC1CC1c1ccc(-c2cccc(O)c2)cc1 with NCI/ADR-RES complex spheroid viability: 2.13

Observed viability, T/C on NCI/ADR-RES complex spheroid viability, entry O=C(C=Cc1cccc(S(=O)(=O)Nc2ccccc2)c1)NO + NC1CC1c1ccc(-c2cccc(O)c2)cc1 , equals 85.7

The value of viability, T/C recorded for Nc1ncn(C2CC(O)C(CO)S2)c(=O)n1 (configuration not stated) + NC1CC1c1ccc(-c2cccc(O)c2)cc1 when tested on NCI/ADR-RES complex spheroid viability reads 29.6

Reported viability, T/C (NCI/ADR-RES complex spheroid viability) for entry CCN(c1cc(-c2ccc(CN3CCOCC3)cc2)cc(C(=O)NCc2c(C)cc(C)[nH]c2=O)c1C)C1CCOCC1 + NC1CCC(NC2CC2c2ccccc2)CC1 is 92.5

NCI/ADR-RES complex spheroid viability viability, T/C of CCN(c1cc(-c2ccc(CN3CCOCC3)cc2)cc(C(=O)NCc2c(C)cc(C)[nH]c2=O)c1C)C1CCOCC1 + NC1CC1c1ccc(-c2cccc(O)c2)cc1 is 104

Reported NCI/ADR-RES complex spheroid viability viability, T/C for item COc1cc(C2c3cc4c(cc3C(OC3OC5COC(C)OC5C(O)C3O)C3COC(=O)C23)OCO4)cc(OC)c1O (configuration not stated) + NC1CCC(NC2CC2c2ccccc2)CC1 was 103

Assay NCI/ADR-RES complex spheroid viability, sample Nc1ccccc1NC(=O)c1ccc(CNC(=O)OCc2cccnc2)cc1 + NC1CC1c1ccc(-c2cccc(O)c2)cc1 , viability, T/C read: 97.9

Form: item CCc1c2c(nc3ccc(O)cc13)-c1cc3c(c(=O)n1C2)COC(=O)[C@]3(O)CC + NC1CCC(NC2CC2c2ccccc2)CC1 ; test system NCI/ADR-RES complex spheroid viability; viability, T/C: 1.16

Simply: CCc1c2c(nc3ccc(O)cc13)-c1cc3c(c(=O)n1C2)COC(=O)[C@]3(O)CC + NC1CC1c1ccc(-c2cccc(O)c2)cc1 , NCI/ADR-RES complex spheroid viability, viability, T/C = 0.32

###

- Test system: NCI/ADR-RES complex spheroid viability
- assay.remarks: Anticancer human tumor NCI/ADR-RES cell line growth inhibition;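 also: spheroids exposed to compounds for 7 days; 100% = DMSO vehicle treated spheroids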
- run.conditions: second compound 10 µM; first compound 0.3 µM; hits give low values
measured.property: viability, T/C (%)
Give the number; % is assumed, so skip it.

Answered cases to consult:
molecule	result.unit	viability, T/C
CCN(c1cc(-c2ccc(CN3CCOCC3)cc2)cc(C(=O)NCc2c(C)cc(C)[nH]c2=O)c1C)C1CCOCC1 + NC1CCC(NC2CC2c2ccccc2)CC1	%	86.1
Nc1ccccc1NC(=O)c1ccc(CNC(=O)OCc2cccnc2)cc1 + NC1CCC(NC2CC2c2ccccc2)CC1	%	65.5
NS(=O)(=O)OCC1CC(n2ccc3c(NC4CCc5ccccc54)ncnc32)CC1O (centres undefined) + NC1CCC(NC2CC2c2ccccc2)CC1	%	50.5

We now examine a further molecule.
The recorded viability, T/C for CCc1c2c(nc3ccc(O)cc13)-c1cc3c(c(=O)n1C2)COC(=O)[C@]3(O)CC + NC1CCC(NC2CC2c2ccccc2)CC1 is 4.32
